Biological target: T1, RBFOX1 RRM (Homo sapiens, UniProt Q9NWB1 109-208)
T1 sequence: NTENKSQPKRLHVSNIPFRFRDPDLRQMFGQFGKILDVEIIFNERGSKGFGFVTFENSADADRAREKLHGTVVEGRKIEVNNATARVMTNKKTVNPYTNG
Test: EMSA; HiTS-Eq, 1 nM pool, 10 min; buffer printed only for the single-RNA assays: 10 mM Tris pH 7.5, 150 mM NaCl, 3.4 mM EDTA, 0.001% NP-40, 30 C
Details: tags: His6 N-terminal (pET28a); label: 5' 32P
Over roughly 16,000 sequences, “ka relative to ugcaugu” has its median near 0.0091; the highest 2% begin near 0.032. Only a selection was taken, and the highest values are over-represented in it overall.
Endpoint Name: binding signal

Here are 6 binders together with their reported answers.
GCUUGCC (DNA:RNA) RNA: GGGAGACCGGAAUUCAGAUUGUCCGCUUGCCUUAAAUCCCGUCGUAGCCACCA DNA 1: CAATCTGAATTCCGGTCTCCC DNA 2: TGGTGGCTACGACGGGATT | 0.0307 KA relative to UGCAUGU
GCCCUGC (DNA:RNA) RNA: GGGAGACCGGAAUUCAGAUUGUCCGCCCUGCUUAAAUCCCGUCGUAGCCACCA DNA 1: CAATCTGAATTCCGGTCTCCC DNA 2: TGGTGGCTACGACGGGATT | 0.0133 KA relative to UGCAUGU
GCCUGUC (DNA:RNA) RNA: GGGAGACCGGAAUUCAGAUUGUCCGCCUGUCUUAAAUCCCGUCGUAGCCACCA DNA 1: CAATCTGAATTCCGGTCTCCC DNA 2: TGGTGGCTACGACGGGATT | 0.0275 KA relative to UGCAUGU
CGCCUGC (DNA:RNA) RNA: GGGAGACCGGAAUUCAGAUUGUCCCGCCUGCUUAAAUCCCGUCGUAGCCACCA DNA 1: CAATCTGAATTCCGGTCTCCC DNA 2: TGGTGGCTACGACGGGATT | 0.0343 KA relative to UGCAUGU
ACCCAGU (DNA:RNA) RNA: GGGAGACCGGAAUUCAGAUUGUCCACCCAGUUUAAAUCCCGUCGUAGCCACCA DNA 1: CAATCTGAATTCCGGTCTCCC DNA 2: TGGTGGCTACGACGGGATT | 0.00233 KA relative to UGCAUGU
GCCCCUG (DNA:RNA) RNA: GGGAGACCGGAAUUCAGAUUGUCCGCCCCUGUUAAAUCCCGUCGUAGCCACCA DNA 1: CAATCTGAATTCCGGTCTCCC DNA 2: TGGTGGCTACGACGGGATT | 0.016 KA relative to UGCAUGU

(Q) Reported binding signal, binder CACCGUG (DNA:RNA) RNA: GGGAGACCGGAAUUCAGAUUGUCCCACCGUGUUAAAUCCCGUCGUAGCCACCA DNA 1: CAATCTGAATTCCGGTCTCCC DNA 2: TGGTGGCTACGACGGGATT : ____
(A) 0.0057 KA relative to UGCAUGU

(Q) Reported binding signal, binder CCGCCUG (DNA:RNA) RNA: GGGAGACCGGAAUUCAGAUUGUCCCCGCCUGUUAAAUCCCGUCGUAGCCACCA DNA 1: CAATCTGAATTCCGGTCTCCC DNA 2: TGGTGGCTACGACGGGATT : ____
(A) 0.0178 KA relative to UGCAUGU

(Q) Reported binding signal, binder GCCUGUG (DNA:RNA) RNA: GGGAGACCGGAAUUCAGAUUGUCCGCCUGUGUUAAAUCCCGUCGUAGCCACCA DNA 1: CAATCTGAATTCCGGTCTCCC DNA 2: TGGTGGCTACGACGGGATT : ____
(A) 0.034 KA relative to UGCAUGU
